Overview of recorded mass density for various compounds
# procedure.details: mn = molality of the nth substance listed, in mol/kg
# cond: 308.15 K; 101.3 kPa; Liquid; Vibrating tube method; m2 = 0
quantity.kind: mass density (kg/m3)

[
  {
    "compound": "O [water] + C[C@H](N)C(=O)O",
    "quantity.kind": "mass density",
    "result.unit": "kg/m3",
    "readout.value": 994.08
  },
  {
    "compound": "O [water] + N[C@@H](CO)C(=O)O",
    "quantity.kind": "mass density",
    "result.unit": "kg/m3",
    "readout.value": 994.06
  },
  {
    "compound": "O [water] + CCCCn1cc[n+](C)c1.[Br-]",
    "quantity.kind": "mass density",
    "result.unit": "kg/m3",
    "readout.value": 994.07
  },
  {
    "compound": "O [water] + NCC(=O)O",
    "quantity.kind": "mass density",
    "result.unit": "kg/m3",
    "readout.value": 994.07
  }
]
